# System: human mononuclear leucocytes (MNL, white blood cells)
# Protocol details: direct leucocyte toxicity, tryptan blue exclusion, 18 hours
# Assay type: cell-based
# Experimental setup: human, 18 h, 1 mM
So basically: is % Leucocyte Death under 6%? Then 1. Not under? Then -1.

[ask] Hello, I'm reviewing records and need to know if % Leucocyte Death of CC(C)(C)c1ccc(C=O)cc1 is below 6%. Could you check?
[reply] -1

[ask] Hello, I'm reviewing records and need to know if % Leucocyte Death of CCC(C)(C)c1ccc(/C=N/N=C(\N)c2ccccn2)cc1 is below 6%. Could you check?
[reply] 1

[ask] Hello, I'm reviewing records and need to know if % Leucocyte Death of N/N=C(\N)c1ccccn1 is below 6%. Could you check?
[reply] -1

[ask] Hello, I'm reviewing records and need to know if % Leucocyte Death of N/C(=N\N=C\c1cccc2ccccc12)c1ccccn1 is below 6%. Could you check?
[reply] -1

[ask] Hello, I'm reviewing records and need to know if % Leucocyte Death of CCC(C)(C)c1ccc(C=O)cc1 is below 6%. Could you check?
[reply] 1

====

Kindly state MIC for each of the entries shown.
# Tested on: E. coli
# Protocol details: MIC, agar dilution, multipoint inoculator
# Assay type: cell-based, Escherichia coli
# Experimental setup: Escherichia coli, 18 h, E. coli W3110R−; upper value of MIC reading

[ask] # query: MIC of entry CC1(C)S[C@@H]2[C@H](NC(=O)[C@H](N)c3ccccc3)C(=O)N2[C@H]1C(=O)O [Amp., Ampicillin, reference compound]
[reply] 1 µg/mL

[ask] # query: MIC of entry CN(C)c1ccc(/C=N/N=C(\N)c2ccncc2)c2ccccc12 [Compound 4PYdx]
[reply] 256 µg/mL

[ask] # query: MIC of entry CCC(C)(C)c1ccc(/C=N/N=C(\N)c2cccnc2)cc1 [Compound 3PYaf]
[reply] 64 µg/mL

[ask] # query: MIC of entry Cc1onc(-c2c(F)cccc2Cl)c1C(=O)N[C@@H]1C(=O)N2[C@@H]1SC(C)(C)[C@@H]2C(=O)O [Fluclox., Flucloxacillin, reference compound]
[reply] > 16 µg/mL

====

# Test system: Bacillus subtilis
# Protocol details: MIC, doubling dilution in 96-well microtitre plate
# Assay type: cell-based
Property: MIC

[ask] # query: MIC of entry NC(=NN=Cc1cccc2ccccc12)c1cc[n+]([O-])cc1 [Compound 4PYOal]
[reply] 16 to 32 µg/mL

[ask] # query: MIC of entry CC(C)(C)c1cc(C=NN=C(N)c2cc[n+]([O-])cc2)c(O)c(C(C)(C)C)c1 [Compound 4PYOcq]
[reply] 64 to 128 µg/mL

[ask] # query: MIC of entry CC(C)(C)c1cc(C=NN=C(N)c2cc[n+]([O-])cc2)cc(C(C)(C)C)c1 [Compound 4PYOff]
[reply] 32 to 64 µg/mL

[ask] # query: MIC of entry CC(=O)Nc1ccc(C=NN=C(N)c2cc[n+]([O-])cc2)cc1 [Compound 4PYOfa]
[reply] 4 to 8 µg/mL

[ask] # query: MIC of entry NC(=NN=Cc1c2ccccc2cc2ccccc12)c1cc[n+]([O-])cc1 [Compound 4PYOam]
[reply] 64 to 128 µg/mL

[ask] # query: MIC of entry CC(C)(C)c1ccc(C=NN=C(N)c2cc[n+]([O-])cc2)cc1 [Compound 4PYOfb]
[reply] 8 to 16 µg/mL

[ask] # query: MIC of entry NC(=NN=Cc1ccc([N+](=O)[O-])o1)c1cc[n+]([O-])cc1 (mixture of isomers) [Compound 4PYOfi]
[reply] 8 to 16 µg/mL

====

Kindly state log10 of MIC for each of the entries shown.
# System: E. faecalis
# Protocol details: MIC, agar dilution, multipoint inoculator
# Assay type: cell-based
# Experimental setup: Enterococcus faecalis, 18 h, E. faecalis Isolate 2; upper value of MIC reading; read-out: MIC
Please interpret these as log10 of MIC where MIC is in µg/mL.

[ask] Lookup: log10 of MIC / E. faecalis / CC1(C)S[C@@H]2[C@H](NC(=O)[C@H](N)c3ccccc3)C(=O)N2[C@H]1C(=O)O [Amp., Ampicillin, reference compound]
[reply] -1.30

[ask] Lookup: log10 of MIC / E. faecalis / Cc1onc(-c2c(F)cccc2Cl)c1C(=O)N[C@@H]1C(=O)N2[C@@H]1SC(C)(C)[C@@H]2C(=O)O [Fluclox., Flucloxacillin, reference compound]
[reply] -0.30

[ask] Lookup: log10 of MIC / E. faecalis / N/C(=N\N=C\c1c2ccccc2cc2ccccc12)c1ccncc1
[reply] 2.41

[ask] Lookup: log10 of MIC / E. faecalis / CCC(C)(C)c1ccc(/C=N/N=C(\N)c2ccncc2)cc1
[reply] 1.81

[ask] Lookup: log10 of MIC / E. faecalis / CC(C)(C)c1cc(/C=N/N=C(\N)c2ccncc2)c(O)c(C(C)(C)C)c1
[reply] 0.60

[ask] Lookup: log10 of MIC / E. faecalis / CCC(C)(C)c1ccc(/C=N/N=C(\N)c2cccnc2)cc1
[reply] 1.81

====

# Test system: S. aureus
# Protocol details: MIC, agar dilution, multipoint inoculator
# Assay type: cell-based, Staphylococcus aureus
# Experimental setup: S. aureus NCTC 6571; upper value of MIC reading
So basically: is MIC under 100 µg/mL? Then MET. Not under? Then NOT MET.

[ask] Hello, I'm reviewing records and need to know if MIC of CCOc1ccccc1C=NN=C(N)c1cccnc1 [Compound 3PYay] is below 100 µg/mL. Could you check?
[reply] NOT MET

[ask] Hello, I'm reviewing records and need to know if MIC of NC(=NN=Cc1c(O)ccc2ccccc12)c1ccccn1 [Compound 2PYdb] is below 100 µg/mL. Could you check?
[reply] NOT MET

[ask] Hello, I'm reviewing records and need to know if MIC of NC(=NN=Cc1c(O)ccc2ccccc12)c1cccnc1 [Compound 3PYdb] is below 100 µg/mL. Could you check?
[reply] NOT MET

[ask] Hello, I'm reviewing records and need to know if MIC of NC(=NN=Cc1cc([N+](=O)[O-])ccc1O)c1cccnc1 [Compound 3PYcj] is below 100 µg/mL. Could you check?
[reply] MET

[ask] Hello, I'm reviewing records and need to know if MIC of CC(C)(C)c1cc(C=NN=C(N)c2ccncc2)cc(C(C)(C)C)c1O [Compound 4PYcr] is below 100 µg/mL. Could you check?
[reply] NOT MET

[ask] Hello, I'm reviewing records and need to know if MIC of Oc1cc(O)c(C=NNc2ccccn2)c(O)c1 [HDcd] is below 100 µg/mL. Could you check?
[reply] NOT MET

[ask] Hello, I'm reviewing records and need to know if MIC of O=Cc1cc(Br)cc([N+](=O)[O-])c1O [cl] is below 100 µg/mL. Could you check?
[reply] MET

[ask] Hello, I'm reviewing records and need to know if MIC of NC(=NN=Cc1cc(Br)cc([N+](=O)[O-])c1O)c1cccnc1 [Compound 3PYcl] is below 100 µg/mL. Could you check?
[reply] MET

[ask] Hello, I'm reviewing records and need to know if MIC of NC(=NN=Cc1ccc(O)c(O)c1)c1ccc2ccccc2n1 [QNca] is below 100 µg/mL. Could you check?
[reply] NOT MET

[ask] Hello, I'm reviewing records and need to know if MIC of NC(=NN=Cc1cc([N+](=O)[O-])ccc1O)c1ccccn1 [Compound 2PYcj] is below 100 µg/mL. Could you check?
[reply] MET

====

Kindly state MIC for each of the entries shown.
# Test system: MRSA
# Protocol details: MIC, agar dilution, multipoint inoculator
# Assay type: cell-based, methicillin-resistant Staphylococcus aureus
# Experimental setup: MRSA Isolate 3; upper value of MIC reading; in µg/mL
# Method: This activity was measured using a multipoint inoculator method as follows. The MIC for each compound was measured using an agar dilution method (Onda, H., et al., Int. J. Antimicrob. Agents. 18, 263 (2001)) (Mueller Hinton agar) by means of a multipoint inoculator delivering 10^4 colony forming units per spot. ‘Staph’ refers to the reference strain of S. aureus (NCTC 6571). […]
In your answer, state the number alone without any accompanying words.

[ask] # query: MIC of entry CCOc1ccccc1C=NN=C(N)c1cccnc1 [Compound 3PYay]
[reply] 128

[ask] # query: MIC of entry NC(=NN=Cc1cc(Br)cc([N+](=O)[O-])c1O)c1cccnc1 [Compound 3PYcl]
[reply] 64

[ask] # query: MIC of entry NC(=NN=Cc1cc(Br)cc([N+](=O)[O-])c1O)c1ccccn1 [Compound 2PYcl]
[reply] 64

[ask] # query: MIC of entry NC(=NN=Cc1c(O)ccc2ccccc12)c1cccnc1 [Compound 3PYdb]
[reply] 256

[ask] # query: MIC of entry CN(C)CCCOc1ccc(C=NN=C(N)c2ccc3ccccc3n2)cc1 [QNds]
[reply] 64

[ask] # query: MIC of entry NC(=NN=Cc1cc(Br)cc([N+](=O)[O-])c1O)c1ccc2ccccc2n1 [QNcl]
[reply] 64

[ask] # query: MIC of entry NC(=NN=Cc1c(O)ccc2ccccc12)c1ccncc1 [Compound 4PYdb]
[reply] 256

[ask] # query: MIC of entry CN(C)c1ccc(/C=N/N=C(\N)c2ccncc2)c2ccccc12 [Compound 4PYdx]
[reply] 128

[ask] # query: MIC of entry O=Cc1cc(Br)cc([N+](=O)[O-])c1O [cl]
[reply] 32

[ask] # query: MIC of entry O=[N+]([O-])c1cc(Br)cc(C=NNc2ccccn2)c1O [HDcl]
[reply] 128

[ask] # query: MIC of entry NC(=NN=Cc1cc([N+](=O)[O-])ccc1O)c1cccnc1 [Compound 3PYcj]
[reply] 4
